Each record here notes measured inhibition.
# Target desc: Sialidase (Vibrio cholerae serotype O1 (strain ATCC 39315 / El Tor Inaba N16961)) (UniProt P0C6E9)
# Sequence (P0C6E9 whole entry, one chain of several): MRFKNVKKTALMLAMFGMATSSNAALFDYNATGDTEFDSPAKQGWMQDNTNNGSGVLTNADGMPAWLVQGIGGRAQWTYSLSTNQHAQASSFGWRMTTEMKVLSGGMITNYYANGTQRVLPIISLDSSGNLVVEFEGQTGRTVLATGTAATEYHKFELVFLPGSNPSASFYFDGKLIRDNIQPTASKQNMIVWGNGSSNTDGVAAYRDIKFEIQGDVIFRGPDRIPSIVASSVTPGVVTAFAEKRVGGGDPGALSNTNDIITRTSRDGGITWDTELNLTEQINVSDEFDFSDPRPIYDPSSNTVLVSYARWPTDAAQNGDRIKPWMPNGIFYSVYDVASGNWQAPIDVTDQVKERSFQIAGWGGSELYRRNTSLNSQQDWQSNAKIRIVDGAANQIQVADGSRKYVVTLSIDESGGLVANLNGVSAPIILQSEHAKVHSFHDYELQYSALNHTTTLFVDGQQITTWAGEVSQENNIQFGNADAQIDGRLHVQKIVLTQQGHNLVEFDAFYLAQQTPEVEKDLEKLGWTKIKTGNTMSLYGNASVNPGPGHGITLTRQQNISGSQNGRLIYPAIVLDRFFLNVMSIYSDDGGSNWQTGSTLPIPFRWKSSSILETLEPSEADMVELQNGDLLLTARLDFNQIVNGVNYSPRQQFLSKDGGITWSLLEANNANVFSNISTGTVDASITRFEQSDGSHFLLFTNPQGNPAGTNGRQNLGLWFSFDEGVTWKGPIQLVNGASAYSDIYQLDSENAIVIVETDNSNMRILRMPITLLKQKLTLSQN
# Conditions used: at 1 mM
Answers without a unit are incomplete; give the number and then its unit.

Reference set (3 entries):
Bench note: what inhibition did CC(=O)N[C@H]1[C@H]([C@H](O)[C@H](O)CN=[N+]=[N-])OC(C(=O)O)=C[C@@H]1O show?
95.6%

Given the entry CC(=O)N[C@H]1[C@H]([C@H](O)[C@H](O)Cn2cc(C[C@H](N)C(=O)O)nn2)OC(C(=O)O)=C[C@@H]1O , report its measured inhibition.
93.2%

Quick check: inhibition of CC(=O)N[C@H]1[C@H]([C@H](O)[C@H](O)Cn2cc(C[C@H](N)C(=O)N[C@H](CCC(=O)O)C(N)=O)nn2)OC(C(=O)O)=C[C@@H]1O ?
93.5%

Turning now to a further record.
Requested read-out: inhibition. Entry: CC(=O)N[C@H]1[C@H]([C@H](O)[C@H](O)CO)OC(C(=O)O)=C[C@@H]1O [NEU5AC2EN]
94.5%

====

# Test system: Paenarthrobacter ureafaciens
# Conditions used: at 1 mM
Measured attribute: inhibition (%)
Provide only the numeric value, understood in %.

Some molecules with known inhibition results, for comparison:
Quick one: inhibition for CC(=O)N[C@H]1[C@H]([C@H](O)[C@H](O)Cn2cc(C[C@H](N)C(=O)O)nn2)OC(C(=O)O)=C[C@@H]1O ?
85.6

Can you share its inhibition? I mean this molecule: CC(=O)N[C@H]1[C@H]([C@H](O)[C@H](O)CN=[N+]=[N-])OC(C(=O)O)=C[C@@H]1O
99.5

Let us examine a further case.
Value lookup for inhibition; key = CC(=O)N[C@H]1[C@H]([C@H](O)[C@H](O)CO)OC(C(=O)O)=C[C@@H]1O [NEU5AC2EN]
99
